Reported Wheat plant response rating values for the following molecules.
# System: wheat (Triticum aestivum)
# procedureText: Test A postemergence
# Type: in vivo
# condition: 125 g ai/ha, postemergence; visual injury rating on 0 to 100 scale (0 no effect, 100 complete control), approx. 10 d
Quick one: just the number, no unit, thanks!

# molecule, Wheat plant response rating
data = [
    ("CN1CC(c2ccc(Cl)cc2)C(C(=O)Nc2cccc(F)c2F)C1=O (stereo not drawn)", 20),
    ("O=C1NCC(c2ccc(Br)cc2)C1C(=O)Nc1ccccc1F (stereo not drawn)", 0),
]

Query :: # value lookup — system wheat (Triticum aestivum), readout Wheat plant response rating, item Cc1ccc(C2CNC(=O)C2C(=O)Nc2ccc(F)c(C)c2F)cc1F (stereo not drawn)
Result :: 0

Query :: What Wheat plant response rating appears in the records for this molecule with wheat (Triticum aestivum)? CCc1ccc(C2CNC(=O)C2C(=O)Nc2ccccc2F)cc1 (stereo not drawn)
Result :: 0

Query :: # query: Wheat plant response rating | item COCc1cccc(C2CNC(=O)C2C(=O)Nc2cccc(F)c2F)c1 (stereo not drawn) | system: wheat (Triticum aestivum)
Result :: 0

Query :: API: value(readout= Wheat plant response rating, system= wheat (Triticum aestivum), query= O=C1NCC(c2cc(F)cc(C(F)(F)F)c2)C1C(=O)Nc1ccccc1F (stereo not drawn) )
Result :: 30

Query :: Please provide the recorded Wheat plant response rating for CN1CC(c2cccc(OC(F)(F)C(F)F)c2)C(C(=O)Nc2cccc(F)c2F)C1=O (stereo not drawn) , tested on wheat (Triticum aestivum).
Result :: 20

Query :: Entry CN1CC(c2ccc(F)cc2)C(C(=O)Nc2ccc(F)cc2F)C1=O (stereo not drawn) , system wheat (Triticum aestivum): what Wheat plant response rating was measured?
Result :: 0

Query :: Field: Wheat plant response rating (wheat (Triticum aestivum)). Entry: C=C(Cl)CN1CC(c2cccc(C(F)(F)F)c2)C(C(=O)Nc2cccc(F)c2F)C1=O (stereo not drawn)
Result :: 0

----------
# Test system: crabgrass, large (large crabgrass, Digitaria sanguinalis)
# procedureText: Test C preemergence
# Format: in vivo
# condition: 125 g ai/ha, scale 0 to 100, 0 no effect, 100 complete control
quantityKind: Plant response rating, Crabgrass, Large

# compound, subjectOfTest, result
records = [
    ("CN1CC(c2cccc(OC(F)(F)C(F)F)c2)C(C(=O)Nc2cccc(F)c2F)C1=O (centres unmarked)", "crabgrass, large (large crabgrass, Digitaria sanguinalis)", 95),
    ("CN1CC(c2cc(F)cc(F)c2)C(C(=O)Nc2cccc(F)c2F)C1=O (centres unmarked)", "crabgrass, large (large crabgrass, Digitaria sanguinalis)", 98),
    ("CN1CC(c2cccc(OC(F)F)c2)C(C(=O)Nc2ccc(F)cc2F)C1=O (centres unmarked)", "crabgrass, large (large crabgrass, Digitaria sanguinalis)", 100),
    ("O=C1NCC(c2cccc(C(F)(F)F)c2F)C1C(=O)Nc1cccc(F)c1F (centres unmarked)", "crabgrass, large (large crabgrass, Digitaria sanguinalis)", 90),
]

Kindly consider the entry below.
Query :: // lookup Plant response rating, Crabgrass, Large for Cc1ccc(C2CN(C)C(=O)C2C(=O)Nc2ccccc2C(F)(F)F)cc1 (centres unmarked)
Result :: 100

----------
As shown below, each of these molecules has a reported pest or weed control at 62.5 g/ha value.
# Test system: redroot pigweed (Amaranthus retroflexus)
# procedureText: Test G Pre-Emergence Protocol
# Assay type: in vivo
# condition: Amaranthus retroflexus, pre-emergence, 312 h, 62.5 g ai/ha, evaluated after 13 days, 100=total damage to plant, 0=no damage to plant, read-out: Pigweed, Redroot damage rating
Please give a number only; it is taken to be in %.

# molecule, subjectOfTest, pest or weed control at 62.5 g/ha, %
records = [
    ("CON1C[C@H](c2ccc(F)c(F)c2)[C@@H](C(=O)Nc2ccc(F)c(F)c2F)C1=O [Compound 1679]", "redroot pigweed (Amaranthus retroflexus)", 10),
    ("CCCOc1cc(C2CN(C)C(=O)C2C(=O)Nc2cccc(F)c2F)cc(C(F)(F)F)c1 (stereo not shown) [Compound 1725]", "redroot pigweed (Amaranthus retroflexus)", 0),
]

Query :: redroot pigweed (Amaranthus retroflexus) / pest or weed control at 62.5 g/ha / CN1C[C@@H](c2ccc(C(F)(F)F)cc2)[C@H](C(=O)Nc2ccc(F)nc2F)C1=O (racemic) [Compound 1650] : value?
Result :: 70

Query :: Param readout = pest or weed control at 62.5 g/ha; param system = redroot pigweed (Amaranthus retroflexus); param query = COc1ccc([C@@H]2CN(C)C(=O)[C@H]2C(=O)Nc2cccc(F)c2C)cc1Cl (racemic) [Compound 1793] ; response: value
Result :: 0

Query :: So what pest or weed control at 62.5 g/ha did CN1C[C@H](c2ccc(C(F)(F)F)cc2)[C@@H](C(=O)Nc2cccc3c2C(=O)OC3)C1=O (racemic) [Compound 1669] get with redroot pigweed (Amaranthus retroflexus)?
Result :: 10

Query :: Fill in the recorded pest or weed control at 62.5 g/ha for this molecule, with redroot pigweed (Amaranthus retroflexus) as test system: CN1C[C@@H](c2cccc(C(F)(F)F)c2)[C@H](C(=O)Nc2cccnc2F)C1=O [Compound 1823]
Result :: 0

Query :: Record lookup: for redroot pigweed (Amaranthus retroflexus), what pest or weed control at 62.5 g/ha belongs to CN1C[C@H](c2cccc(C(F)(F)F)c2)[C@@H](C(=O)Nc2ccc3cccnc3n2)C1=O (racemic) [Compound 1676] ?
Result :: 0
